Tested on: HCT116 WT cells
experiment notes: HCT116 WT cell proliferation / viability (CellTiter-Glo, 6 days)
Assay type: cell-based
test conditions: Homo sapiens, HCT-116, 144 h, HCT116 WT cells, 6 days, CellTiter-Glo; read-out: HCT-116 WT IC50
pIC50: −log10 of the molar value.
quantity kind: pIC50

(Q) Entry `C[C@@H](c1ncccn1)N(Cc1ccc(C(F)(F)F)nn1)C(=O)c1ccc2nc(N)c3c(c2c1)COC3` : reported pIC50 = ?
(A) < 5.00

(Q) Entry `CC(C)(C)CN(Cc1ccc(C(F)(F)F)cn1)C(=O)c1ccc2nc(N)c3c(c2c1)COC3(C)C` : reported pIC50 = ?
(A) < 5.00

(Q) Entry `COc1ccc(CN(C(=O)c2cc3c4c(c(N)nc3cn2)COC4)C(C)C)nc1Cl` : reported pIC50 = ?
(A) < 5.00

(Q) Entry `CCN(Cc1ncn(C)n1)C(=O)c1ccc2nc(N)c3c(c2c1)CO[C@@H]3C` : reported pIC50 = ?
(A) < 4.30

(Q) Entry `Cc1nc(CN(C)C(=O)c2ccc3nc(N)c4c(c3c2)COC4)ccc1Br` : reported pIC50 = ?
(A) < 5.00

(Q) Entry `CC(C)N(Cc1ccc(C(F)(F)F)cn1)C(=O)c1cc2c3c(c(N)nc2cn1)CCO3` : reported pIC50 = ?
(A) 5.25

(Q) Entry `CN(Cc1ccc(C(F)(F)F)nc1)C(=O)c1cc2c3c(c(N)nc2cn1)COC3` : reported pIC50 = ?
(A) < 5.00
